Values from paper PMC8321398

Record form. Attribute: recovery at 6 h, 10 µM. Fill in for each entry.
# Test description: Plasma protein binding in mouse plasma at 10 uM, equilibrium dialysis
# Type: in vitro ADME
# Assay conditions: mouse, mouse plasma, pH 7.4
Answer with a number only, understood to be in %.

Q: Give recorded recovery at 6 h, 10 µM. CC(C)c1nc2cnc(-c3ccc(F)c(C(F)(F)F)c3)cn2c1-c1ccc2[nH]ncc2c1F
A: 94.5

Q: Give recorded recovery at 6 h, 10 µM. CC(C)Oc1cc(-c2cn3c(-c4ccc5[nH]ncc5c4F)c(C(F)(F)F)nc3cn2)ccc1F
A: 93.9

Q: Give recorded recovery at 6 h, 10 µM. Fc1ccc(-c2cn3c(-c4ccc5[nH]ncc5c4F)c(C(F)(F)F)nc3cn2)cc1C(F)(F)F
A: 92.1

Q: Give recorded recovery at 6 h, 10 µM. CC(C)c1nc2cnc(-c3ccc(F)c(C(F)(F)F)c3)cn2c1-c1c(F)cc(O)cc1F
A: 91.5
